These measurements were taken from patent US12240862B2.

Target: human PAD4 (Homo sapiens, UniProt Q9UM07)
Construct: human PAD4 (NM_012387), A2P663, was PCR amplified; His-SUMO (N, cleaved yes)
Sequence (Q9UM07 2-663): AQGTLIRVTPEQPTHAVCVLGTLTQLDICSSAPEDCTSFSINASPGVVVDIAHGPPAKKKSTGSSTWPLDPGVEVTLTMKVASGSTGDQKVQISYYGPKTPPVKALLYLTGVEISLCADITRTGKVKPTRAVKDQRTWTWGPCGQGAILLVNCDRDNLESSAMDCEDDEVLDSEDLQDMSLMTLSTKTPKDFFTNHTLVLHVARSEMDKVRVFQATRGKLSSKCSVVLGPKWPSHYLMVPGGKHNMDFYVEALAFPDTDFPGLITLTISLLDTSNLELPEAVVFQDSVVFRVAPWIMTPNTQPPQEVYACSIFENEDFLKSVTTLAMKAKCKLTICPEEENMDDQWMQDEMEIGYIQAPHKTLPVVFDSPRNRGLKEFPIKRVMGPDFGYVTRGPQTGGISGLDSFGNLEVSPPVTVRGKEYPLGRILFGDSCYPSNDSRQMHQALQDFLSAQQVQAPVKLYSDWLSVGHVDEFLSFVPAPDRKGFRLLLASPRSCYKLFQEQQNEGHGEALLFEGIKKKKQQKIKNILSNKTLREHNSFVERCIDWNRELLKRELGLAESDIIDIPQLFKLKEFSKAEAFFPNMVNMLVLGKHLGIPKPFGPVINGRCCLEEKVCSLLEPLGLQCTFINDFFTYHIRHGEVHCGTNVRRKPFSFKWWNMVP
Experiment: In vitro PAD4 BAEE biochemical assay
Conditions: human PAD4, BAEE substrate; 5 nM PAD4, 2 mM calcium chloride, 3 mM BAEE; geometric mean of multiple experiments
pIC50: −log10 of the molar value.
measurement.name: pIC50

>  <compound>
COc1cc(C(=O)N2[C@H]3CC[C@@H]2[C@H](N)C3)cc2nc(-c3cc4ccc([C@@H](C)NC(=O)N(C)Cc5cccc(=O)[nH]5)nc4n3CC3CC3)c(C)n12 [Example 220]

>  <pIC50>
7.10

$$$$
>  <compound>
COc1cc(C(=O)N2[C@H]3CC[C@@H]2[C@H](N)C3)cc2nc(-c3cc4ccc([C@@H](C)NC(=O)c5cnn(C)c5)nc4n3CC3CC3)c(C)n12 [Example 116]

>  <pIC50>
7.46

$$$$

I: COc1cc(C(=O)N2[C@H]3CC[C@@H]2[C@H](N)C3)cc2nc(-c3cc4ccc(N5CCCC6(CC6)S5(=O)=O)nc4n3CC3CC3)c(C)n12 [Example 457]
II: COc1cc(C(=O)N2[C@H]3CC[C@@H]2[C@H](N)C3)cc2nc(-c3cc4ccc([C@@H](C)NC(=O)N5CC(C#N)C5)nc4n3CC3CC3)c(C)n12 [Example 234]
III: COc1cc(C(=O)N2CC3(CNC3)C2)cc2nc(-c3cc4ccc(N(C(F)F)S(C)(=O)=O)nc4n3CC3CC3)c(C)n12 [Example 367]
IV: COc1cc(C(=O)N2C[C@H]3CC[C@@H]2[C@@H]3N)cc2nc(-c3cc4ccc([C@@H](C)NC(=O)C(C)(C)C)nc4n3CC3CC3)c(C)n12 [Example 174]
// query Please list these compounds in decreasing order of pIC50. Hello, could you send the labels back in the order asked? Thank you.
// result I, II, IV, III
(I: 7.28, II: 6.83, IV: 6.53, III: 5.27)

---

Target: human PAD4 (Homo sapiens)
Construct: human PAD4 (NM_012387), A2P663, was PCR amplified; His-SUMO (N, cleaved yes)
Test: In vitro PAD4 BAEE biochemical assay
Conditions: human PAD4, BAEE substrate; 5 nM PAD4, 2 mM calcium chloride, 3 mM BAEE; geometric mean of multiple experiments
measurement.name: IC50 (nM)

Previously resolved entries follow.
>  <compound>
COc1cc(C(=O)N2CCC3(CCCN3)CC2)cc2nc(-c3cc4ccc(N(C(F)F)S(C)(=O)=O)nc4n3CC3CC3)c(C)n12

>  <IC50, nM>
14100

$$$$
>  <compound>
COc1cc(C(=O)N2C[C@H]3CC[C@@H]2[C@@H]3N)cc2nc(-c3cc4ccc([C@@H](C)NC(=O)N5CCCC5)nc4n3CC3CC3)c(C)n12

>  <IC50, nM>
193

$$$$
>  <compound>
COc1cc(C(=O)N2CC[C@H]3CCCN[C@H]3C2)cc2nc(-c3cc4ccc(N(C(F)F)S(C)(=O)=O)nc4n3CC3CC3)c(C3CC3)n12

>  <IC50, nM>
886

$$$$
>  <compound>
COc1cc(C(=O)N[C@H]2CNC[C@@H](F)C2)cc2nc(-c3cc4ccc(N(C(F)F)S(C)(=O)=O)nc4n3CC3CC3)c(C)n12

>  <IC50, nM>
25600

$$$$
>  <compound>
COc1cc(C(=O)N2[C@H]3CC[C@@H]2[C@H](N)C3)cc2nc(-c3cc4ccc([C@@H](C)NC(=O)c5ccc(C)nc5)nc4n3CC3CC3)c(C)n12

>  <IC50, nM>
22.2

$$$$
>  <compound>
COc1cc(C(=O)N2CCC[C@@H](N)C2)cc2nc(-c3cc4ccc(C5CC5C(=O)N(C)C)nc4n3CC3CC3)c(C)n12 (some centres unmarked)

>  <IC50, nM>
933

$$$$
>  <compound>
COc1cc(C(=O)N2[C@H]3CC[C@@H]2[C@H](N)C3)cc2nc(-c3cc4ccc([C@@H](C)NC(=O)C56CC(CO5)C6)nc4n3CC3CC3)c(C)n12

>  <IC50, nM>
698

$$$$
>  <compound>
CS(=O)(=O)N(c1ccc2cc(-c3nc4cc(C(=O)N5CCC[C@@H](N)C5)ccn4c3CC3CC3)n(CC3CC3)c2n1)C(F)F

>  <IC50, nM>
194

$$$$
>  <compound>
COc1cc(C(=O)N2[C@H]3CC[C@@H]2[C@H](N)C3)cc2nc(-c3cc4ccc([C@@H](C)NC(=O)N5CC(F)(F)C(F)(F)C5)nc4n3CC3CC3)c(C)n12

>  <IC50, nM>
111

$$$$
>  <compound>
COc1cc(C(=O)N2C[C@H]3CCC[C@@H]2[C@@H]3N)cc2nc(-c3cc4ccc(N(C(F)F)S(C)(=O)=O)nc4n3CC3CC3)c(C)n12 [Example 330]

>  <IC50, nM>
233

$$$$

P: CC1(c2c(-c3cc4ccc(N(C(F)F)S(C)(=O)=O)nc4n3CC3CC3)nc3cc(C(=O)N4CCC[C@@H](N)C4)ccn23)CC1
Q: COc1cc(C(=O)N2CC[C@@H](NC(C)=O)[C@@H](N)C2)cc2nc(-c3cc4ccc(N(C(F)F)S(C)(=O)=O)nc4n3CC3CC3)c(C)n12
// query Endpoint returns the identifier whose IC50 is numerically larger, either P or Q . Record your answer as the label of the chosen record.
// result P
(P: 11300 nM, Q: 725 nM)

1: COc1cc(C(=O)N2[C@H]3CC[C@@H]2[C@H](N)C3)cc2nc(-c3cc4ccc([C@@H](C)NC(=O)c5ccn(C)n5)nc4n3CC3CC3)c(C)n12
2: COc1cc(C(=O)N2CCC[C@@H](N)C2)cc2nc(-c3cc4ccc(-c5cccnc5N5CCOCC5)nc4n3CC3CC3)c(C)n12
3: COc1cc(C(=O)N2[C@H]3CC[C@@H]2[C@H](N)C3)cc2nc(-c3cc4ccc([C@@H](C)NC(=O)C5(OC)CC5)nc4n3CC3CC3)c(C)n12
4: COC(=O)N(C)c1ccc2cc(-c3nc4cc(C(=O)N5[C@H]6CC[C@@H]5[C@H](N)C6)cc(OC)n4c3C)n(CC3CC3)c2n1
// query Please list these compounds in decreasing order of IC50. Hello, could you send the labels back in the order asked? Thank you.
// result 2, 4, 1, 3

a: COc1cc(C(=O)N2[C@H]3CC[C@@H]2[C@H](N)C3)cc2nc(-c3cc4ccc([C@@H](C)NC(=O)c5ncccn5)nc4n3CC3CC3)c(C)n12
b: CCc1c(-c2cc3ccc(N(C(F)F)S(C)(=O)=O)nc3n2CC2CC2)nc2cc(C(=O)N3C[C@H](N)CC[C@@H]3C)ccn12
c: COc1cc(C(=O)N2CCC[C@@H](N)C2)cc2nc(-c3cc4ccc(OCC(N)=O)nc4n3CC3CC3)c(C)n12
d: CCc1ccc2cc(-c3nc4cc(C(=O)N5CCC[C@@H](N)C5)cc(OC)n4c3C)n(CC3CC3)c2c1F
// query Please list these compounds in decreasing order of IC50. Hello, could you send the labels back in the order asked? Thank you.
// result d, c, b, a

1: COc1cc(C(=O)N2C[C@H](N)[C@@H]3CC[C@H]2C3)cc2nc(-c3cc4ccc([C@@H](C)NC(=O)C56CC(F)(C5)C6)nc4n3CC3CC3)c(C)n12
2: COc1cc(C(=O)N2C[C@H](N)CC[C@@H]2C)cc2nc(-c3cc4ccc(N(C(F)F)S(C)(=O)=O)nc4n3CC3CC3)c(C)n12
// query Which entry shows the lesser value of IC50 here, 1 or 2 ? Record your answer as the label of the chosen record.
// result 1
